Target: PD-L1 (human)
Sequence (chain, as listed by the source): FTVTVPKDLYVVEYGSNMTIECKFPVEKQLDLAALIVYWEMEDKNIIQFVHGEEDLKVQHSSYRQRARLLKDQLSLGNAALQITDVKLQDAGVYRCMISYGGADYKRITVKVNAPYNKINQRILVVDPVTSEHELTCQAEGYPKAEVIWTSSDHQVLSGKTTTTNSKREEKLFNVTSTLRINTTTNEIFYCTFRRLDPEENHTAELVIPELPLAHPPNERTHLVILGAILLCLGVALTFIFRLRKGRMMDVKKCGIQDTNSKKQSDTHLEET
Assay: flow cytometry, cells expressing PD-L1
REPORTED ENDPOINT: parental ratio

BINDER	parental ratio
variant CD80 E24G/R29D/Y31L/Q33H/K36G/M38I/T41A/M43R/M47T/F59L/E81V/L85R/K89N/A91T/F92P/K93V/R94L/H96R/N149S/C182S (Fc fusion) VIHVTKEVKEVATLSCGHNVSVEGLAQTDILWHKEGKIVLAMRSGDTNIWPEYKNRTILDITNNLSIVILALRPSDEGTYVCVVRKYENDTPVLERLAEVTLSVKADFPTPSISDFEIPTSNIRRIICSTSGGFPEPHLSWLENGEELSAINTTVSQDPETELYAVSSKLDFNMTTNHSFMSLIKYGHLRVNQTFNWNTTKQEHFPDN	0.06

Now consider a different binder.
Query :: Requested field: parental ratio. Item: variant CD80 K36G/K37Q/M38I/L40M (Fc fusion) VIHVTKEVKEVATLSCGHNVSVEELAQTRIYWQKEGQIVMTMMSGDMNIWPEYKNRTIFDITNNLSIVILALRPSDEGTYECVVLKYEKDAFKREHLAEVTLSVKADFPTPSISDFEIPTSNIRRIICSTSGGFPEPHLSWLENGEELNAINTTVSQDPETELYAVSSKLDFNMTTNHSFMCLIKYGHLRVNQTFNWNTTKQEHFPDN
Result :: 0.05

Source listed as patent US20250163127A1.
